Biological target: T1, A1 protein (mouse, residues 1-152, P104K C113S, used as wild type) (mouse)
T1 sequence (Q07440 1-152 with P104K C113S, looked up): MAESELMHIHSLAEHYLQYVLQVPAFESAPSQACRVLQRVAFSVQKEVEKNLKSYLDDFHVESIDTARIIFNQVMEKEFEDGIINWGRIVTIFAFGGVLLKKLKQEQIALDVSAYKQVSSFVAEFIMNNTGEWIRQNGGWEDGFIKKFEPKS
Assay: fluorescence dissociation kinetics with competitor; dissociation; preformed complex of TAMRA-labelled peptide and partner protein mixed with excess unlabeled PUMA peptide as competitor; stopped-flow or Cary Eclipse spectrophotometer; 25 °C; 50 mM sodium phosphate, 0.05% (v/v) Tween 20, pH …
Where no end group is shown, it is not given here. The star is where a group is joined. TAMRA = 5-carboxytetramethylrhodamine, CN(C)c1ccc2c(-c3ccc(C(=O)*)cc3C(=O)[O-])c3ccc(=[N+](C)C)cc-3oc2c1
Below, each of the binders is paired with its reported koff value.
Write the number in s⁻¹ without appending the unit.

{TAMRA}-RVEEEEWAREIGAQLRRAADDLNAQAERRRQEEQH [PUMA Y152A peptide (on the M144A wild type), TAMRA-labelled]
0.00251
{TAMRA}-RVEEEEWAREIGGQLRRAADDLNGQYERRRQEEQH (peptide, UniProt Q99ML1 127-161, looked up, PUMA, mouse, residues 127-161, UniProt Q99ML1; Double mutant; also called A150G (A139G); source: synthetic peptide (Biomatik)) [PUMA (A139G A150G) peptide (on the M144A wild type), TAMRA-labelled]
0.0039
{TAMRA}-RVEEEEFAREIGAQLRRAADDLNAQYERRRQEEQH [PUMA W133F peptide (on the M144A wild type), TAMRA-labelled]
0.00203
{TAMRA}-RVEEEEWAREAGAQLRRAADDLNAQYERRRQEEQH [PUMA I137A peptide (on the M144A wild type), TAMRA-labelled]
0.006
{TAMRA}-RVEEEEWARGIGAQLRRAADDLNAQYERRRQEEQH [PUMA E136G peptide (on the M144A wild type), TAMRA-labelled]
0.00238

stdin: Given the binder {TAMRA}-SESQEEIIHNIARHLAQIGDEADHNIQPTLVRQLA (peptide, UniProt P70444 76-110, looked up, BID, mouse, residues 76-110, UniProt P70444; source: synthetic peptide (Biomatik)) [BID M97A peptide, TAMRA-labelled] , what is its reported koff?
stdout: 0.0015

stdin: Fill in the blank: the reported koff of {TAMRA}-RVEEEEWAREIGGQLRRAADDLNAQYERRRQEEQH [PUMA A139G peptide (on the M144A wild type), TAMRA-labelled] is ____.
stdout: 0.00108

stdin: Which measured koff value corresponds to {TAMRA}-RVEEEEWAREIGAQLRRAADDLNAQYERRRQEEQH [PUMA peptide (mouse, residues 127-161, M144A, used as wild type), TAMRA-labelled] ?
stdout: 0.0005
